All values here come from ChEMBL document CHEMBL1201862.

# System: UACC-257
# Procedure Text: NCI tumour cell line growth inhibition, 48 h
Calls of active or inactive are those of the source. Cut-off read from the data, not from the text of the source: active = GI50 up to about 1.1 µM and inactive = higher.
Readout Kind: GI50

O=C(c1ccccc1)N1C2CCC1C(C(F)(F)F)=C2C(F)(F)F ... > 100 µM (inactive)
Oc1cc(-c2cccs2)nc2cc3c(cc12)OCO3 ... 3.72 µM (inactive)
C/C=C/C/C=C/CCC(=O)C1OC1C(N)=O (stereo not given) ... 17.3 µM (inactive)
CC(C)(C)c1ccc2c(c1)OP1(Oc3cccc4cccnc34)(O2)Oc2ccc(C(C)(C)C)cc2O1 ... 2.54 µM (inactive)

Please supply GI50 for each of the following items, keeping them in order.
1. CC(=O)Oc1cc(OC(C)=O)c2c(=O)c3ccccc3[nH]c2c1
2. COc1ccc2c3c(c(C(=O)O)oc13)C(CCC(=O)O)CC2 (stereo not given)
3. O=C([C@H](O)[C@@H](O)c1cccc(Cl)c1)C12CC3CC(CC(C3)C1)C2
4. COc1ccc(NC(=O)C(=O)Cc2nc3ccc(C(=O)c4ccccc4)cc3nc2O)c([N+](=O)[O-])c1

Response:
28.1 µM (inactive)
> 100 µM (inactive)
2.21 µM (inactive)
22.6 µM (inactive)

Please supply GI50 for each of the following items, keeping them in order.
1. O=C1c2cccc3cc([N+](=O)[O-])cc(c23)C(=O)N1O
2. CCCCN(C)CC(C(C)=O)C(c1ccccc1)c1c(O)c2ccccc2oc1=O (stereo not given)

Response:
1: 33.7 µM (inactive); 2: > 100 µM (inactive)

====

Field: GI50. Provide a value for each of the compounds that follow.
# Test system: SN12C
# Procedure Text: NCI tumour cell line growth inhibition, 48 h
Where a name gives a salt, the structure may show the parent alone. Calls of active or inactive are those of the source. No stated cut-off is given here; in the data, active = GI50 up to about 1.1 µM and inactive = higher.

O=C(OCCN1CCCCCC1)C(c1ccsc1)C1CCCCC1 (configuration not stated) [CETIEDIL CITRATE] ... 17.9 µM (inactive)
O=C([C@H](O)[C@@H](O)c1cccc(Cl)c1)C12CC3CC(CC(C3)C1)C2 ... 1.61 µM (inactive)
O=C1C(C(O)(C(F)(F)Cl)C(F)(F)Cl)CCC1C(O)(C(F)(F)Cl)C(F)(F)Cl (configuration not stated) ... 6.87 µM (inactive)
CCOC(=O)/C=C1\Nc2ccccc2C12CCc1c([nH]c3ccccc13)C2C(=O)OCC (configuration not stated) ... 44.3 µM (inactive)
COc1ccc(NC(=O)C(=O)Cc2nc3ccc(C(=O)c4ccccc4)cc3nc2O)c([N+](=O)[O-])c1 ... 35.7 µM (inactive)
OCC1OC(n2cnc3c(/C=C(/O)c4ccccc4)ncnc32)C(O)C1O (configuration not stated) ... 3.19 µM (inactive)

Next compound, GI50 to be filled in.
Prompt: Suppose we examine the compound O=S(=O)(C1=CC(S(=O)(=O)c2ccccc2)COC1)c1ccccc1 (configuration not stated) ; what GI50 value has been reported?
Response: > 100 µM (inactive)

====

# Tested on: SK-MEL-5
# Procedure Text: NCI tumour cell line growth inhibition, 48 h
Active and inactive are the calls of the source. Rule as the data show it: active = GI50 up to about 1.1 µM and inactive = higher.
Readout Kind: GI50

Here's what some known entries look like.
CN(C)/C=N/NC(=O)/C(C#N)=C/N(C)C ... > 100 µM (inactive)
COCN(C)c1nc(N(C)C)nc(N(C)C)n1 ... > 100 µM (inactive)
CCOC(=O)CC1(c2cccc3ccccc23)OC(=O)c2ccccc21 (stereo not given) ... 21.3 µM (inactive)
CN1CCN(C)C12C=c1ccccc1=CC21CC1 ... 23.2 µM (inactive)

Please supply GI50 for each of the following items, keeping them in order.
1. CCOC(=O)C1(Br)C(c2ccccc2)NC(=O)N(C2OC(COC(=O)c3ccccc3)C(OC(=O)c3ccccc3)C2OC(=O)c2ccccc2)C1(C)Br (stereo not given)
2. CN(Cc1cnc2nc(N)nc(N)c2n1)c1ccc(C(=O)NC(CO)CCCO)cc1 (stereo not given)
3. COC(=O)C(Cc1ccccc1)OC(=O)C(N)CC(=O)O (stereo not given)
4. Cc1cccc(C)c1N1C(=O)C(=O)C(c2nc3ccccc3s2)/C(=N/c2cccc3c(=O)[nH][nH]c(=O)c23)C1=O (stereo not given)
5. O=S(=O)(O)c1cc(/N=N/c2cc(S(=O)(=O)O)c3cccnc3c2O)ccc1/C=C/c1ccc(/N=N/c2cc(S(=O)(=O)O)c3cccnc3c2O)cc1S(=O)(=O)O
6. O=C(CSc1nnc(SCC(=O)NN=C2CCCCC2)s1)NN=C1CCCCC1

Response:
["15.2 µM (inactive)", "> 100 µM (inactive)", "> 100 µM (inactive)", "> 100 µM (inactive)", "> 100 µM (inactive)", "> 100 µM (inactive)"]

====

Field: GI50. Provide a value for each of the compounds that follow.
# Tested on: SNB-78
# Procedure Text: NCI tumour cell line growth inhibition, 48 h
Activity calls are given as the source filed them. Cut-off read from the data, not from the text of the source: active = GI50 up to about 1.1 µM and inactive = higher.

CC(=O)C1C(=O)C(=O)N(c2ccccc2N2C(=O)C(=O)C(C(C)=O)C2=O)C1=O (configuration not stated) ... > 100 µM (inactive)
COc1cc2c(cc1OC)C(CC1=C(c3ccccc3)CN3CCc4cc(OC)c(OC)cc4C3C1)NCC2 (configuration not stated) ... 15.6 µM (inactive)
Cc1ccc(NC(=O)C(=O)C(C#N)c2nc(-c3ccc(-c4ccccc4)cc3)cs2)c(C)c1 (configuration not stated) ... > 100 µM (inactive)

Please supply GI50 for each of the following items, keeping them in order.
1. Cc1c(Cl)ccc2c1NC(=O)C2(O)CC(=O)c1ccc(Cl)cc1 (configuration not stated)
2. CC1CC2(CC[C@@H]1O)OCCO2 (some centres not stated)
3. Nc1ccc(N)c2c1C(=O)c1c(N)ccc(N)c1C2=O
4. C=C[C@]1(C)CCC2=C(CCC3C2(C)CCC[C@@]3(C)COC(C)=O)C1 (some centres not stated)

Response:
1. > 96.6 µM (inactive)
2. > 100 µM (inactive)
3. 78.5 µM (inactive)
4. 18.7 µM (inactive)

====

Field: GI50. Provide a value for each of the molecules that follow.
# Tested on: SK-MEL-2
# Procedure Text: NCI tumour cell line growth inhibition, 48 h
Calls of active or inactive are those of the source. No stated cut-off is given here; in the data, active = GI50 up to about 1.1 µM and inactive = higher.

Here's what some known entries look like.
CCOC(=O)C1CCCCc2sc(N)c(C#N)c21 (stereo unspecified) ... > 100 µM (inactive)
C=CCC1(O)c2cccc(O)c2C(=O)c2c(O)cccc21 ... 17.3 µM (inactive)
CSc1nc(NC2OCC(O)C(O)C2O)c(N)c(=O)n1C (stereo unspecified) ... > 100 µM (inactive)
NCCNCc1c2ccccc2c(CNCCN)c2ccccc12 ... 14.5 µM (inactive)
CCOC(=O)C1C(=O)c2ccccc2CN1Cc1ccccc1 (stereo unspecified) ... > 100 µM (inactive)

Prompt: Suppose we examine the molecule `Cc1cccc2c1c(=O)c1c(O)cc(O)cc1n2C` ; what GI50 value has been reported?
Response: > 100 µM (inactive)

====

# Test system: KM12
# Procedure Text: NCI tumour cell line growth inhibition, 48 h
Active and inactive are the calls of the source. No stated cut-off is given here; in the data, active = GI50 up to about 1.1 µM and inactive = higher.
One label from this list, please: 1.0 (active), 0.0 (inactive)

Oc1cc(-c2ccc(Cl)cc2)nc2ncccc12 ... 0.0
CN(C)CCNC(=O)c1ccc(NCCCN(C)CCCNc2ccc3c(=O)n(CCN(C)C)c(=O)n4c5ccccc5c(=O)c2c34)c2c(O)c3ccccc3nc12 ... 1.0
C=CC1=C(C)c2cc3[nH]c(c4c5nc(cc6[nH]c(cc1n2)c(C)c6CC)C(C)=C5C(=O)[C@@H]4C(=O)OC)[C@@H](CCC(=O)O)[C@@H]3C ... 0.0
CCOC(=O)C1C(c2ccc3c(c2)OCO3)c2c(n[nH]c2O)CC1(C)O (centres undefined) ... 0.0

Prompt: Call for entry O=C1C2C3C=CC(C2C(=O)N1CN1CCOCC1)C1C2C(=O)N(CN4CCOCC4)C(=O)C2C31 (centres undefined) :
Response: 0.0

Prompt: Call for entry Nc1ccc(C(=O)O)cc1 [AMINOBENZOIC ACID] :
Response: 0.0

====

# Tested on: OVCAR-4
# Procedure Text: NCI tumour cell line growth inhibition, 48 h
The source made the active and inactive calls. No stated cut-off is given here; in the data, active = GI50 up to about 1.1 µM and inactive = higher.
Field: GI50. Provide a value for each of the compounds that follow.

Here's what some known entries look like.
Cc1cc[n+]2c(c1)-c1cc(C)cc[n+]1CC2 ... > 100 µM (inactive)
COC/C=C\COC ... > 100 µM (inactive)
CCOC(=O)c1cc(C#N)[nH]c1-c1ccsc1 ... 35.6 µM (inactive)
COc1ccc2nc(NC(=O)C(=O)NNC(=O)c3ccncc3)sc2c1 ... > 100 µM (inactive)
O=S1(=O)c2ccccc2NC(=S)CC1c1ccccc1 (stereo unspecified) ... > 100 µM (inactive)

Please supply GI50 for each of the following items, keeping them in order.
1. O=[N+]([O-])c1cc(-[n+]2cc([O-])on2)ccc1Cl
2. COCCOCc1nc(C#N)c(N)o1
3. CCSc1s/c(=N/c2ccc(/N=c3\sc(C)c(SC)s3)cc2)sc1-c1ccc(C)cc1
4. CSc1nc(NC2OCC(O)C(O)C2O)c(N)c(=O)n1C (stereo unspecified)
5. C[C@]12CCC(=O)C=C1CC[C@@H]1[C@@H]2CC[C@]2(C)C(=O)[C@H](n3ccnc3)C[C@@H]12

Response:
1: 14 µM (inactive); 2: > 100 µM (inactive); 3: > 100 µM (inactive); 4: > 100 µM (inactive); 5: > 100 µM (inactive)

Please supply GI50 for each of the following items, keeping them in order.
1. COc1cc(C(=O)N2CCc3c([nH]c4c([N+](=O)[O-])c(OC)ccc34)C2C)cc(OC)c1OC (stereo unspecified)
2. CC(C)(CCc1nc2ccccc2[nH]1)C(=O)O
3. CCOC(=O)C(=O)Nc1cc(Cl)c(Cl)cc1Cl
4. O=C(NC(Cc1ccc(I)cc1)C(=O)O)c1cccc(Br)c1 (stereo unspecified)
5. COc1ccc(/C=c2\sc3n(c2=O)C(N)=C(C#N)C(c2ccc(OC)cc2)C=3c2nc3ccccc3[nH]2)cc1 (stereo unspecified)
6. C[C@]12CCC[C@H](Cl)C1(O)C[C@H](C(=O)O)CC2 (stereo partly specified)

Response:
["> 100 µM (inactive)", "> 100 µM (inactive)", "> 100 µM (inactive)", "> 92.9 µM (inactive)", "> 100 µM (inactive)", "> 100 µM (inactive)"]
